Cited source for all entries: patent US9850283B2

Catalogue of IC50 readings, one per entry.
- target.or.system: Human PD-L1/PD-1 (Homo sapiens, UniProt Q9NZQ7)
- Construct: made in house; host or cells: HEK293T
- Sequence (Q9NZQ7 with tags, fused parts or gaps): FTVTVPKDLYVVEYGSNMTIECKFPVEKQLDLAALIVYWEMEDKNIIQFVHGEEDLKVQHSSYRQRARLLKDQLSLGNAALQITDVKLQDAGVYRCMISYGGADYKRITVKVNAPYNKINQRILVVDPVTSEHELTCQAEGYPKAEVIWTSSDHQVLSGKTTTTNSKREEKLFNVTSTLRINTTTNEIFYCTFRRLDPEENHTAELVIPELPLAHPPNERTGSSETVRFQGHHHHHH
- measurement.description: HTRF PD-1-Ig/PD-L1-His binding assay (human PD-L1)
- experimental.context: cluster symbol; read-out: HTRF IC50 cluster
Positions of bridges follow the written chain, without caps; N, C: chain ends. Non-standard residues stand in square brackets, D forms with d. Residues, ends and D or L forms follow the SMILES beside them. ξ: configuration not given here. Bta = N[C@@H](Cc1csc2ccccc12)C(=O)O; NMeNle = CCCC[C@H](NC)C(=O)O; NMeA = CN[C@@H](C)C(=O)O; ξC = NC(CS)C(=O)O; Sar = CNCC(=O)O

In the examples that follow, each entry is paired with its recorded IC50.
compound | IC50
CCCC[C@H]1C(=O)N(C)[C@@H](CCCC)C(=O)N[C@@H](CCCNC(=N)N)C(=O)NC(C(=O)N[C@@H](CO)C(N)=O)CSCC(=O)N[C@@H](Cc2ccc(O)cc2)C(=O)N(C)[C@@H](C)C(=O)N[C@@H](CC(N)=O)C(=O)N2CCC[C@H]2C(=O)N[C@@H](Cc2cnc[nH]2)C(=O)N[C@@H](CC(C)C)C(=O)N2CCC[C@H]2C(=O)N[C@@H](Cc2c[nH]c3ccccc23)C(=O)N[C@@H](CO)C(=O)N[C@@H](Cc2c[nH]c3ccccc23)C(=O)N1C (stereo partly shown) [Example 9037] ({CH2CO}-Y[NMeA]NPHLPWSW[NMeNle][NMeNle]R[ξC]S-NH2; thioether N-14) | 6.76 to 30.3 nM
CCCC[C@H]1C(=O)N(C)[C@@H](CCCC)C(=O)N[C@@H](CCCNC(=N)N)C(=O)N[C@H](C(=O)NCC(N)=O)CSCC(=O)N[C@@H](Cc2ccc(O)cc2)C(=O)N(C)[C@@H](C)C(=O)N[C@@H](CC(N)=O)C(=O)N[C@@H](Cc2cnc[nH]2)C(=O)N2CCC[C@H]2C(=O)N[C@@H](CC(C)C)C(=O)N2CCC[C@H]2C(=O)N[C@@H](Cc2c[nH]c3ccccc23)C(=O)N[C@@H](CO)C(=O)N[C@@H](Cc2csc3ccccc23)C(=O)N1C [Example 1052] ({CH2CO}-Y[NMeA]NHPLPWS[Bta][NMeNle][NMeNle]RCG-NH2; thioether N-14) | > 30.5 nM
CCCC[C@H]1C(=O)N(C)[C@@H](CCCC)C(=O)N[C@@H](CCCNC(=N)N)C(=O)N[C@H](C(=O)NCC(N)=O)CSCC(=O)N[C@@H](Cc2ccccc2)C(=O)N(C)[C@@H](C)C(=O)N[C@@H](CO)C(=O)N2CCC[C@H]2C(=O)N[C@@H](Cc2cnc[nH]2)C(=O)N[C@@H](CC(C)C)C(=O)N(C)CC(=O)N[C@@H](Cc2c[nH]c3ccccc23)C(=O)N[C@@H](CO)C(=O)N[C@@H](Cc2c[nH]c3ccccc23)C(=O)N1C [Example 5019] ({CH2CO}-F[NMeA]SPHL[Sar]WSW[NMeNle][NMeNle]RCG-NH2; thioether N-14) | 6.76 to 30.3 nM

Next item in the queue.
Exam item: Find IC50 (Human PD-L1/PD-1 (Homo sapiens, UniProt Q9NZQ7)) for the entry `CCCC[C@H]1C(=O)N(C)[C@@H](COc2cccc(C)c2)C(=O)N[C@@H](CC(C)C)C(=O)N[C@H](C(=O)NCC(N)=O)CSCC(=O)N[C@@H](Cc2ccc(O)cc2)C(=O)N(C)[C@@H](C)C(=O)N[C@@H](CC(N)=O)C(=O)N2CCC[C@H]2C(=O)N[C@@H](CN)C(=O)N[C@@H](CC(C)C)C(=O)N2C[C@H](O)C[C@H]2C(=O)N[C@@H](Cc2c[nH]c3ccccc23)C(=O)N[C@@H](CCN)C(=O)N[C@@H](Cc2c[nH]c3ccccc23)C(=O)N1C`
Marked response: 0.385 to 6.74 nM

---

Catalogue of pIC50 readings, one per entry.
- target.or.system: LK35.2-hPD-L1 cells / PE-labeled PD-1-Ig (Homo sapiens, UniProt Q9NZQ7)
- Construct: expressed in transfected cells; host or cells: LK35.2 mouse B cell line
- Sequence (Q9NZQ7 19-290): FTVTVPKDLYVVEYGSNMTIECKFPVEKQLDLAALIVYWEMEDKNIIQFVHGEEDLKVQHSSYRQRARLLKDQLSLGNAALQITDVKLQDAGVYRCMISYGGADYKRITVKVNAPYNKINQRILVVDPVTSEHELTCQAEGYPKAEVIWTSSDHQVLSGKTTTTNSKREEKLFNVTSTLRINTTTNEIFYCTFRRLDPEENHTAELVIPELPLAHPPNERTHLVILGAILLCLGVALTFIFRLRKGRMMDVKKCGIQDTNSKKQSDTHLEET
- measurement.description: LK35.2-hPD-L1 cell binding high-content screening assay
- Type: cell-based
- experimental.context: cell binding assay, cell line not given; cluster symbol; read-out: CBA IC50 cluster
pIC50: −log10 of the molar value. Positions of bridges follow the written chain, without caps; N, C: chain ends. Non-standard residues stand in square brackets, D forms with d. Residues, ends and D or L forms follow the SMILES beside them. ξ: configuration not given here. Ala(benzothiazol-2-yl) = N[C@@H](Cc1nc2ccccc2s1)C(=O)O; Bta = N[C@@H](Cc1csc2ccccc12)C(=O)O; Hyp = O=C(O)[C@@H]1C[C@@H](O)CN1; NMeF = CN[C@@H](Cc1ccccc1)C(=O)O; NMeNle = CCCC[C@H](NC)C(=O)O; NMeM = CN[C@@H](CCSC)C(=O)O; NMeA = CN[C@@H](C)C(=O)O; ξC = NC(CS)C(=O)O; Sar = CNCC(=O)O

compound | readout.kind | result
CCCC[C@H]1C(=O)N(C)[C@@H](CCCC)C(=O)N[C@@H](CC(C)C)C(=O)N[C@H](C(=O)NCC(N)=O)CSCC(=O)N[C@@H](Cc2ccc(O)cc2)C(=O)N(C)[C@@H](C)C(=O)N[C@@H](CC(N)=O)C(=O)N2CCC[C@H]2C(=O)N[C@@H](Cc2cnc[nH]2)C(=O)N[C@@H](CC(C)C)C(=O)N2C[C@H](O)C[C@H]2C(=O)N[C@@H](Cc2c[nH]c3ccccc23)C(=O)N[C@@H](CO)C(=O)N[C@@H](Cc2c[nH]c3ccccc23)C(=O)N1C | pIC50 | 8.33 to 9.80
CCCC[C@H]1C(=O)N[C@@H](CCCNC(=N)N)C(=O)NC(C(=O)NCC(N)=O)CSCC(=O)N[C@@H](Cc2ccc(O)cc2)C(=O)N(C)[C@@H](C)C(=O)N[C@@H](CC(N)=O)C(=O)N2CCC[C@H]2C(=O)N[C@@H](CO)C(=O)N[C@@H](CC(C)C)C(=O)N2C[C@H](O)C[C@H]2C(=O)N[C@@H](Cc2c[nH]c3ccccc23)C(=O)N[C@@H](CO)C(=O)N[C@@H](Cc2csc3ccccc23)C(=O)N(C)[C@@H](CCSC)C(=O)N1C (some centres unmarked) [Example 9099] ({CH2CO}-Y[NMeA]NPSL[Hyp]WS[Bta][NMeM][NMeNle]R[ξC]G-NH2; thioether N-14) | pIC50 | 8.33 to 9.80
CCCC[C@H]1C(=O)N(C)[C@@H](C)C(=O)N[C@@H](CCCNC(=N)N)C(=O)NC(C(=O)NCC(N)=O)CSCC(=O)N[C@@H](Cc2ccc(O)cc2)C(=O)N(C)[C@@H](C)C(=O)N[C@@H](CC(N)=O)C(=O)N2CCC[C@H]2C(=O)N[C@@H](Cc2cnc[nH]2)C(=O)N[C@@H](CC(C)C)C(=O)N2CCC[C@H]2C(=O)N[C@@H](Cc2c[nH]c3ccccc23)C(=O)N[C@@H](CO)C(=O)N[C@@H](Cc2c[nH]c3ccccc23)C(=O)N1C (some centres unmarked) [Example 9054] ({CH2CO}-Y[NMeA]NPHLPWSW[NMeNle][NMeA]R[ξC]G-NH2; thioether N-14) | pIC50 | 7.14 to 8.32

Exam item: Suppose we examine the compound CCCC[C@H]1C(=O)N(C)CC(=O)N[C@@H](CC(=O)O)C(=O)N[C@@H](C(C)C)C(=O)N(C)[C@@H](Cc2ccccc2)C(=O)N[C@@H](Cc2ccc(O)cc2)C(=O)N(C)CC(=O)N[C@@H](Cc2c[nH]c3ccccc23)C(=O)N[C@@H](Cc2nc3ccccc3s2)C(=O)N[C@@H](CC(C)C)C(=O)N[C@H](C(=O)NCC(N)=O)CSCC(=O)N[C@@H](Cc2ccccc2)C(=O)N(C)[C@@H](Cc2ccccc2)C(=O)N1C [Example 3558] ({CH2CO}-F[NMeF][NMeNle][Sar]DV[NMeF]Y[Sar]W[Ala(benzothiazol-2-yl)]LCG-NH2; thioether N-13) ; what pIC50 value has been reported?
Marked response: < 7.13

Exam item: Moving on to the next compound: CCCC[C@H]1C(=O)N(C)[C@@H](CCCC)C(=O)N[C@@H](CC(C)C)C(=O)N[C@H](C(=O)NCC(N)=O)CSCC(=O)N[C@@H](Cc2ccc(O)cc2)C(=O)N(C)[C@@H](C)C(=O)N[C@@H](CC(N)=O)C(=O)N(C)CC(=O)N[C@@H](Cc2c[nH]cn2)C(=O)N[C@@H](CCC(N)=O)C(=O)N2C[C@H](O)C[C@H]2C(=O)N[C@@H](Cc2c[nH]c3ccccc23)C(=O)N[C@@H](CO)C(=O)N[C@@H](Cc2c[nH]c3ccccc23)C(=O)N1C [Example 5084] ({CH2CO}-Y[NMeA]N[Sar]HQ[Hyp]WSW[NMeNle][NMeNle]LCG-NH2; thioether N-14)
Marked response: 7.14 to 8.32
